ASSAY NAME: Fluorescence of free probe prior to binding to a protein tag
Format: physicochemical
Each entry below carries its recorded Quantum yield of free probe.
MEASURED PROPERTY: Quantum yield of free probe

>  <COMPOUND>
CN1C(=O)/C(=C/c2ccc(N(C)CCOC(=O)NCc3ccc(COc4nccc(N)n4)cc3)cc2)N=C1/C=C/c1ccccc1 [probe 17]

>  <RESULT>
<0.001

$$$$
>  <COMPOUND>
N#C/C(=C\c1ccc2c(c1)SCCN2CCOC(=O)NCc1ccc(COc2nc(N)nc3[nH]cnc23)cc1)C(=O)O [probe 103]

>  <RESULT>
<0.001

$$$$
>  <COMPOUND>
CN(CCOC(=O)NCc1ccc(COc2nc(N)nc3[nH]cnc23)cc1)c1ccc(/C=C(\C#N)c2nc3ccccc3o2)cc1 [probe 2]

>  <RESULT>
0.001

$$$$
>  <COMPOUND>
N#C/C(=C\c1cc2c3c(c1)CCCN3CCC2)C(=O)NCC(=O)NCc1ccc(COc2nc(N)nc3[nH]cnc23)cc1 [Reference Probe BG-Gly-CCVJ, reference compound]

>  <RESULT>
<0.001

$$$$
>  <COMPOUND>
CN(CCOC(=O)NCc1ccc(COc2nc(N)nc3[nH]cnc23)cc1)c1ccc2cc(/C=C(\C#N)C(=O)OC(C)(C)C)sc2c1 [probe 30]

>  <RESULT>
<0.001

$$$$
>  <COMPOUND>
CN(CCOC(=O)NCc1ccc(COc2nccc(N)n2)cc1)c1ccc(/C=C(\C#N)c2nc3ccccc3s2)cc1 [probe 9]

>  <RESULT>
<0.001

$$$$

The origin of these recorded values is patent US11209437B2.
